- TARGET: cynomolgus HER2 antigen (cynomolgus monkey)
- TEST_NAME: SPR (ProteOn XPR36), IgG captured by anti-human Fc, soluble monovalent antigen, 1:1 fit
READOUT: kon (M⁻¹ s⁻¹)
Give bare numbers, in M⁻¹ s⁻¹.

The binder chimeric anti-HER2 antibody 4517 (antibody, V domains shown, light chain entry is full length) VH: EVQLVESGGDLVKPGGSLKLSCAASGFTFSSYGMSWVRLTPDKRLEWVATISGGGSYTYYPDSVKGRFTISRDIAKSTLYLQMSSLKSEDTAVYYCARKGNYGNYGKLAYWGQGTSVTVS VL: DIQMTQSPASLSVSVGETVTITCRASENIYSNLAWYQQEQGKSPQLLVYAATNLADGVPSRFSGSGSGTQYSLKINSLQSEDFGSYYCQHFWGTPWTFGGGTKLEIKR showed kon equal to 230000
